Reported Relative cAMP EC50 values are given for each entry in this list.
Target: hGLP-1R (Homo sapiens, UniProt P43220)
Sequence (P43220 24-463): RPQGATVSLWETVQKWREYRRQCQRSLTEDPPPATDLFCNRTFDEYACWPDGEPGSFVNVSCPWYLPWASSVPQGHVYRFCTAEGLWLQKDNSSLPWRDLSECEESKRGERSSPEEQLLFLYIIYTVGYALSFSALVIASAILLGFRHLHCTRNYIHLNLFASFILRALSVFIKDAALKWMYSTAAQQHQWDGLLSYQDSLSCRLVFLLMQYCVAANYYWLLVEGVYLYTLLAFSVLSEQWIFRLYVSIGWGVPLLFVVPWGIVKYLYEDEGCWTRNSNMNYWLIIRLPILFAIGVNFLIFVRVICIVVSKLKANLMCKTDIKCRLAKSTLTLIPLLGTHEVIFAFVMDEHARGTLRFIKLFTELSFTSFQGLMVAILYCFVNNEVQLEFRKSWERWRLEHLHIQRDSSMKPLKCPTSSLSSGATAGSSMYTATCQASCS
Experiment: cell-based or functional assay

binder	unit abbreviation	Relative cAMP EC50
YXQGTXTSDXXIXLDXKYQXEFIEXLVEGGPSSGAPPPSGS (synthetic construct; SITE 2: note = 2-Aminoisobutyric Acid; SITE 6: note = alpha-methyl-2-fluoro-L-phenylalanine; SITE 10: note = 3-(4-Pyridyl)-L-alanine; SITE 11: note = alpha-methyl-L-serine; SITE 13: note = alpha-methyl-leucine; SITE 16: note = L-ornithine; SITE 17: note = Lysine is chemically mo) [Example 767]	nM	0.299
YXQGTXTSDYSILLDKKAQXAFIEYLEEGGPSSGAPPPSGE (synthetic construct; SITE 2: note = 2-Aminoisobutyric Acid; SITE 6: note = alpha-methyl-2-fluoro-L-phenylalanine; SITE 17: note = Lysine is chemically modified through conjugation of the epsilon-amino group of the Lysine side chain with (gamma-Glu)2-CO-(CH2)16-CO2H; SITE 20: note = 2-Aminoisobutyric) [Example 435]	nM	0.311
YXQGTFTSDFSQXLDKKAQXAFIEXLIEGGPSSGAPPPSGS (synthetic construct; SITE 2: note = 2-Aminoisobutyric Acid; SITE 13: note = alpha-methyl-leucine; SITE 17: note = Lysine is chemically modified through conjugation of the epsilon-amino group of the Lysine side chain with (2-[2-(2-Amino-ethoxy)-ethoxy]-acetyl)-(gamma-Glu)-CO-(CH2) 16-CO2H; SITE 20: n) [Example 841]	nM	0.336
YXQGTXTSDXXIXLDXKAQXXFIEXLIEGGPSSGEPPPS (synthetic construct; SITE 2: note = 2-Aminoisobutyric Acid; SITE 6: note = alpha-methyl-2-fluoro-L-phenylalanine; SITE 10: note = 3-(4-Pyridyl)-L-alanine; SITE 11: note = alpha-methyl-L-serine; SITE 13: note = alpha-methyl-leucine; SITE 16: note = L-ornithine; SITE 17: note = Lysine is chemically mo) [Example 375]	nM	0.299
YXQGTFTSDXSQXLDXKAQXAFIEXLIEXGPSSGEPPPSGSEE (non-natural residues; acylated Lys; C-terminal amide; synthetic construct; SITE 2: note = 2-Aminoisobutyric Acid; SITE 10: note = 3-(4-Pyridyl)-L-alanine; SITE 13: note = alpha-methyl-leucine; SITE 16: note = L-ornithine; SITE 17: note = Lysine is chemically modified through conjugation of the epsilon-amino group of the Lysine side chain with (2-[2-(2-) [Example 1097]	nM	1.59
YXQGTFTSDXSQXLDXKAQXAFIEXLLEGGPSSGAPPPSGSEE (non-natural residues; lysine acylated γGlu-C18 diacid; C-terminal amide; synthetic construct; SITE 2: note = 2-Aminoisobutyric Acid; SITE 10: note = 3-(4-Pyridyl)-L-alanine; SITE 13: note = alpha-methyl-leucine; SITE 16: note = L-ornithine; SITE 17: note = Lysine is chemically modified through conjugation of the epsilon-amino group of the Lysine side chain with D-Glutami) [Example 1058]	nM	4.48

src = patent US20240270821A1
